- System: fibrosarcoma HT1080
- Assay Details: Inhibition of tumor cell growth, HT1080
- Assay type: cell-based
- Run Parameters: Homo sapiens, HT-1080
Measurement Label: IC50 (nM)
Give bare numbers, in nM.

| Compound | Measurement Units | IC50 |
| --- | --- | --- |
| Cc1ccc(S(=O)(=O)Nc2ccc(-c3ccco3)c3cccnc23)cc1 [Compound 5] | nM | 9780 |
| O=S(=O)(Nc1ccc(-c2cccnc2)c2cccnc12)c1cccc(C(F)(F)F)c1 [Compound 24] | nM | 400 |
| Cc1ccc(S(=O)(=O)Nc2ccc(-c3cccnc3)c3cccnc23)cc1 [Compound 6] | nM | 4220 |
| O=S(=O)(Nc1ccc(-c2cccnc2)c2cccnc12)c1cccnc1 [Compound 25] | nM | 1070 |

Fill blank: measured IC50 of the compound O=S(=O)(Nc1ccc(-c2ccncc2)c2cccnc12)c1cccnc1 [Compound 30] is ____.
1070
